- assayTarget: Metabotropic glutamate receptor 3 (Homo sapiens)
- testDetails: Agonist activity at human metabotropic glutamate receptor 3 expressed in HEK293 cells assessed as induction of Ca2+ internalization after 1 hr by fluo-4-AM dye based fluorescence assay
- Assay type: functional, cell-based
Calls of active or inactive are those of the source. No cut-off for these calls is given here.
endpoint: Activity

FC(F)(F)c1c(-c2ccc(OC3CCOCC3)c(Cl)c2)ccn2c(CC3CC3)nnc12    inactive
Cc1ccc(Oc2ccc(-c3ccn4c(CC5CC5)nnc4c3Cl)cc2Cl)c(C)n1    inactive
O[C@H]1CC[C@H](Nc2ccc(-c3ccn4c(CC(F)(F)F)nnc4c3Cl)cc2Cl)CC1    inactive
Fc1cc(-c2ccn3c(CC4CC4)nnc3c2Cl)ccc1NC1CC1    inactive
